testedTarget: Ba/F3-FGFR4-transfected cells (Homo sapiens)
Sequence (P22455 whole entry, change not shown): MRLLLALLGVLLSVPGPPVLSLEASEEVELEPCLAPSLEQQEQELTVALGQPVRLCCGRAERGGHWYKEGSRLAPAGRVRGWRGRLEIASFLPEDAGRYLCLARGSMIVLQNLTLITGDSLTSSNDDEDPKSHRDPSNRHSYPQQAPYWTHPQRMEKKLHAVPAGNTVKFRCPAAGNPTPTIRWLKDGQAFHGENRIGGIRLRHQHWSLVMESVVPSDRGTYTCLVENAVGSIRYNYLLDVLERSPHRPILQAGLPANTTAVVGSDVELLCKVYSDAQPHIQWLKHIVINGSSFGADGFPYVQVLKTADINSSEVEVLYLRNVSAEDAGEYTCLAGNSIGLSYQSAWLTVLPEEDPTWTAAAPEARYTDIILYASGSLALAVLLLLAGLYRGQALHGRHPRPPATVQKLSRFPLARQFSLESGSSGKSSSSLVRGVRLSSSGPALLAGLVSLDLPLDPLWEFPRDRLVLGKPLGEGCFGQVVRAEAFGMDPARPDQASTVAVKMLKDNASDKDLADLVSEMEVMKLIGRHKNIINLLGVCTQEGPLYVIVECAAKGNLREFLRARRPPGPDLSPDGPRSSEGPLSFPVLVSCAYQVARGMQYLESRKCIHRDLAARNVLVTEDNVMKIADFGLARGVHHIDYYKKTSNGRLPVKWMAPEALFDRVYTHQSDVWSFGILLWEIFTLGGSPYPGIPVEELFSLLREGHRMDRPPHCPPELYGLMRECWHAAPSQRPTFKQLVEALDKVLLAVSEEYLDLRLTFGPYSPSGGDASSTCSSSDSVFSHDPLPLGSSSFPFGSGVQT
assayText: Ba/F3-FGFR4 cellular proliferation assay, Alamar Blue
Assay type: cell-based
measurementLabel: BAF3-FGFR4 pIC50

The cases that follow already have their BAF3-FGFR4 pIC50 on record.
[
  {
    "molecule": "COc1cc(OC)c(F)c(/N=c2\\ccc3ncc(-c4cnn(C)c4)nc3n2CCN(C2COC2)C2COC2)c1F [Compound 164]",
    "testedTarget": "Ba/F3-FGFR4-transfected cells (Homo sapiens)",
    "BAF3-FGFR4 pIC50": "~7.66"
  },
  {
    "molecule": "COc1cc(OC)cc(N(CCN2CCOCC2)c2ccc3ncc(-c4cnn(C)c4)nc3n2)c1 [Compound 146]",
    "testedTarget": "Ba/F3-FGFR4-transfected cells (Homo sapiens)",
    "BAF3-FGFR4 pIC50": "~6.58"
  },
  {
    "molecule": "COc1cc(/N=c2\\ccc3ncc(-c4cnn(C)c4)nc3n2Cc2cnn(C)c2)c(F)c(OC)c1 [Compound 196]",
    "testedTarget": "Ba/F3-FGFR4-transfected cells (Homo sapiens)",
    "BAF3-FGFR4 pIC50": "~8.62"
  },
  {
    "molecule": "COc1cc(OC)c(F)c(N(Cc2ncc[nH]2)c2ccc3ncc(-c4cnn(C)c4)nc3n2)c1F [Compound 25]",
    "testedTarget": "Ba/F3-FGFR4-transfected cells (Homo sapiens)",
    "BAF3-FGFR4 pIC50": "~8.23"
  }
]

(Q) Find the recorded BAF3-FGFR4 pIC50 belonging to COc1cc(OC)cc(N(CC(O)C(F)(F)F)c2ccc3ncc(-c4cnn(C)c4)nc3n2)c1 (single isomer, unassigned) [Compound 33] and report it.
(A) ~7.03

====

testedTarget: KDR (h) (Homo sapiens)
Sequence (P35968 20-1356): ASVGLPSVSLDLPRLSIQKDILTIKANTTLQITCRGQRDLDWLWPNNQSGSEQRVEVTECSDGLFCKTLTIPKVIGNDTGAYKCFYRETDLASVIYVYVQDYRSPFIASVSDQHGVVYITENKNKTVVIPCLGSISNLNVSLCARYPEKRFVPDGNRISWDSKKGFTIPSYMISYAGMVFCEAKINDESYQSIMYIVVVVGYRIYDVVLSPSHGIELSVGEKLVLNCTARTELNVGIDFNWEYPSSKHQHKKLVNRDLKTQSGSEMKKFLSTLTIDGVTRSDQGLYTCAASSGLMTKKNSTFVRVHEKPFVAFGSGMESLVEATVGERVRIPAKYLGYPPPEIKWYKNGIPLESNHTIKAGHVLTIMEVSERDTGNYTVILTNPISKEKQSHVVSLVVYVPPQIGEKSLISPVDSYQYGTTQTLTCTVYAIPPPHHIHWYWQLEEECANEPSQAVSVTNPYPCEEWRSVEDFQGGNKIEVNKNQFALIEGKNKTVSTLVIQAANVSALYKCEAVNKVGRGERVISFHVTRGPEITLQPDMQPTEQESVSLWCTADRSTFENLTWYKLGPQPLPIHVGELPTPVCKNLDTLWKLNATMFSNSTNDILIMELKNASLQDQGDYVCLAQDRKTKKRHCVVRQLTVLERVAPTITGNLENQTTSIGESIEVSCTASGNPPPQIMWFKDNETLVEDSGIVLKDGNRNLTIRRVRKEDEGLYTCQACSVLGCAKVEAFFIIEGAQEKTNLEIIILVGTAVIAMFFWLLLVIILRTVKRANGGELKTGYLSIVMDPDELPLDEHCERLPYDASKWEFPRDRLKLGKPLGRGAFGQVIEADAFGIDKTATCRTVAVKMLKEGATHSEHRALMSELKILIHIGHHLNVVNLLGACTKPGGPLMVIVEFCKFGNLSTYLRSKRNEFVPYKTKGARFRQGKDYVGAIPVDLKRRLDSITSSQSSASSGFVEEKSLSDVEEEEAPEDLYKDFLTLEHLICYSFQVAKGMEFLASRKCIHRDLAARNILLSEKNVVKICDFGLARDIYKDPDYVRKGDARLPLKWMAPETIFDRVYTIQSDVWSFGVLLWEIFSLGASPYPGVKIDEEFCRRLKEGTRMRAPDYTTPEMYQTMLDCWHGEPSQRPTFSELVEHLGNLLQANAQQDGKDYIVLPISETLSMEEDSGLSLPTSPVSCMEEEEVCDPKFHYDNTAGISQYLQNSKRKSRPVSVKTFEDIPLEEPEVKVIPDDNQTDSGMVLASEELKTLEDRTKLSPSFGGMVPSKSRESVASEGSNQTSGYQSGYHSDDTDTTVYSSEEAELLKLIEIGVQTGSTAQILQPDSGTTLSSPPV
assayText: KDR (VEGFR2) (enzymatic assay), TR-FRET
Format: biochemical
recordedConditions: average values if tested multiple times, read-out: VEGFR 2 (KDR) pIC50 (converted)
Catalogue of compounds with associated IC50

[
  {
    "compound": "CNCCn1/c(=N/c2c(Cl)ccc(OC)c2Cl)ccc2ncc(-c3cnn(C)c3)nc21 [Compound 84]",
    "IC50": "> 1000 nM"
  },
  {
    "compound": "COc1cc(OC)c(F)c(N(c2ccc3ncc(-c4cnn(C)c4)nc3n2)C(CO)COC(C)C)c1 (single isomer, unassigned) [Compound 76]",
    "IC50": "> 1000 nM"
  }
]

Moving on to the next compound.
(Q) Enter reported IC50 observed with KDR (h) (Homo sapiens) for CNCCn1/c(=N/c2c(F)cccc2F)ccc2ncc(-c3cnn(C)c3)nc21 [Compound 44]
(A) > 1000 nM

====

Overview of recorded BAF3-FGFR3 (MIN IL3) pIC50 for various compounds
testedTarget: Ba/F3-FGFR3-transfected cells (Homo sapiens, UniProt P22607)
Construct: BAF3-FGFR3 (MIN IL3) pIC50; other: minus IL3
Sequence (P22607 whole entry, change not shown): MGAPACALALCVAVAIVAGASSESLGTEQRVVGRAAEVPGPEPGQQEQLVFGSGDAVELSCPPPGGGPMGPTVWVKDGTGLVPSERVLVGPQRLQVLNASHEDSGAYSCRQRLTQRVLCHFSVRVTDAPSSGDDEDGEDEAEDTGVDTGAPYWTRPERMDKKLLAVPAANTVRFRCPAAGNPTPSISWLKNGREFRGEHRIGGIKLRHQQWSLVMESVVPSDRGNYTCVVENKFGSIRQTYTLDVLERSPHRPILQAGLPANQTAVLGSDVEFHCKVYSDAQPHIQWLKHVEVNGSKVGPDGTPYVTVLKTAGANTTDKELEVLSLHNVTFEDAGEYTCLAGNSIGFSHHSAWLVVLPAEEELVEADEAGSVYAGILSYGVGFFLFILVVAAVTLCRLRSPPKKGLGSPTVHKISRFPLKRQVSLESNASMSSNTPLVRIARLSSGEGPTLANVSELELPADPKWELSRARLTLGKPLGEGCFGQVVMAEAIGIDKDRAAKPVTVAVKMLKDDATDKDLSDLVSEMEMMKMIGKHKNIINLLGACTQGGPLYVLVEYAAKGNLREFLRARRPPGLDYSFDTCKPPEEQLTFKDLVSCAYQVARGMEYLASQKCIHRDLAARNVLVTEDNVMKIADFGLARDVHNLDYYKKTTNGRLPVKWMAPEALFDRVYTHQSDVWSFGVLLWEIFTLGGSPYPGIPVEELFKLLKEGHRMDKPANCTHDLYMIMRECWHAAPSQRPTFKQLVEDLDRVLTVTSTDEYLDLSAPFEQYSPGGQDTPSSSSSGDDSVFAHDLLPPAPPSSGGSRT
assayText: Ba/F3-FGFR3 (minus IL3) cellular proliferation assay, Alamar Blue
Type: cell-based
# respond with the number and nothing more

[
  {
    "compound": "COc1cc(OC)c(F)c(/N=c2\\ccc3ncc(-c4cnn(C)c4)nc3n2CC2CCOC2)c1F (stereo not shown)",
    "testedTarget": "Ba/F3-FGFR3-transfected cells (Homo sapiens, UniProt P22607)",
    "BAF3-FGFR3 (MIN IL3) pIC50": 7.59
  },
  {
    "compound": "COc1cc(OC)c(F)c(N(CC2CCC(=O)N2)c2ccc3ncc(-c4cnn(C)c4)nc3n2)c1 (stereo not shown) [Compound 52]",
    "testedTarget": "Ba/F3-FGFR3-transfected cells (Homo sapiens, UniProt P22607)",
    "BAF3-FGFR3 (MIN IL3) pIC50": 7.10
  },
  {
    "compound": "COCC(O)Cn1/c(=N/c2cc(OC)cc(OC)c2F)ccc2ncc(-c3cnn(C)c3)nc21 (single isomer, unassigned)",
    "testedTarget": "Ba/F3-FGFR3-transfected cells (Homo sapiens, UniProt P22607)",
    "BAF3-FGFR3 (MIN IL3) pIC50": 8.15
  },
  {
    "compound": "COc1ccc(F)c(N(Cc2ncc[nH]2)c2ccc3ncc(-c4cnn(C)c4)nc3n2)c1Cl",
    "testedTarget": "Ba/F3-FGFR3-transfected cells (Homo sapiens, UniProt P22607)",
    "BAF3-FGFR3 (MIN IL3) pIC50": 7.46
  }
]

With those in mind, consider the next compound.
(Q) Form: Entry = COc1cc(OC)c(F)c(/N=c2\ccc3ncc(-c4cnn(C)c4)nc3n2CCCN2CCCC2=O)c1F | System = Ba/F3-FGFR3-transfected cells (Homo sapiens, UniProt P22607) | BAF3-FGFR3 (MIN IL3) pIC50 = ____
(A) 8.19

Origin of measurements: patent US9309242B2
